Every entry's value here was drawn from patent US11926613B2.

# Test system: Primary Neurons
# method-summary: HCS neurite outgrowth assay (High Content Screening with Primary Neurons)
# Assay type: cell-based
# condition-set: Primary neuron
readout-type: EC50 (µM)
One number for each entry, in µM.

Field: example entries. Status: answers known.
Record COc1ccc(O)c(C(=O)c2ccc(C(=O)N[C@@H]3CNC[C@H]3NC(=O)c3ccnc(N)n3)cc2)c1F , field EC50: 1.83

Input COc1ccc(O)c(C(O)c2ccc(C(=O)N[C@@H]3CNC[C@H]3NC(=O)c3ccnc(N)n3)cc2)c1F (stereo partly shown) . Output EC50: 2.05

Consider O=C(N[C@@H]1CNC[C@H]1NC(=O)c1ccncc1)c1ccncc1 (stereo in doubt) . Its measured EC50 is 0.93

Notebook: COc1ccc(O)c(C(=O)c2ccc(C(=O)N3CCN(C(=O)c4ccncc4)CC3)cc2)c1F , EC50 read as 4.92

Provide reported EC50 for each item, in the same order as listed.
1. COc1ccc(O)c(C(=O)c2ccc(C(=O)Nc3ccccc3NC(=O)c3ccncc3)cc2)c1F
2. COc1ccc(OC)c(C(=O)c2ccc(C(=O)O[C@@H]3CCN(C)C[C@H]3NC(=O)c3ccncc3)cc2)c1F
3. O=C(N[C@@H]1CNC[C@H]1NC(=O)c1ccc(C(=O)c2c(O)cccc2F)cc1)c1ccncc1
4. O=C(N[C@@H]1CCCCC[C@H]1NC(=O)c1ccc(C(=O)c2ccccc2)cc1)c1ccncc1
5. Cc1ccc(O)c(C(=O)c2ccc(C(=O)N[C@@H]3CNC[C@H]3NC(=O)c3ccncc3)cc2)c1
6. O=C(N[C@@H]1CNC[C@H]1NC(=O)c1ccc(C(=O)c2cccc(Cl)c2O)cc1)c1ccncc1
7. COc1cc(C(=O)c2ccccc2O)ccc1C(=O)N[C@@H]1CNC[C@H]1NC(=O)c1ccnc(N)n1
8. COc1ccc(O)c(C(=O)c2ccc(C(=O)N[C@@H]3CCCC[C@H]3NC(=O)c3ccncc3)cc2)c1F

output:
1. 10.4
2. 4.92
3. 4.9
4. 16.8
5. 7.77
6. 2.15
7. 1.24
8. 2.61

====

Please provide measured pEC50 for the entries that follow.
# Test system: Primary Neurons
# method-summary: HCS neurite outgrowth assay (High Content Screening with Primary Neurons)
# Assay type: cell-based
# condition-set: Primary neuron
pEC50: −log10 of the molar value.

Sample answers from the record:
Form field pEC50 for item COc1cccc(C(=O)c2ccc(C(=O)N[C@@H]3CNC[C@H]3NC(=O)c3ccncc3)cc2)c1O [Example A73] on Primary Neurons: < 4.70

// assay Primary Neurons, entry COc1ccc(OC)c(C(=O)c2ccc(C(=O)N3CCN(C(=O)c4ccncc4)CC3)cc2)c1F [Example A8] , pEC50 value = < 4.70

For every item below, please supply its pEC50.
1. COc1ccc(O)c(C(=O)c2ccc(C(=O)N[C@@H]3CNC[C@H]3NC(=O)c3ccc(O)cc3)cc2)c1F [Example A37]
2. COc1cccc(C(=O)c2ccc(C(=O)N[C@@H]3CNC[C@H]3NC(=O)c3ccnc(N)n3)cc2)c1O [Example A72]

output:
1: < 4.70; 2: < 4.70
